Let's look at some compounds and their measured EC50.
System: CEM cells HIV-1 protection, formazan growth assay
PROTOCOL NOTES: NCI AIDS Antiviral Assay

- COMPOUND: "O=C1OC(C2Cc3ccc4ccccc4c3C2=O)c2ccccc21 (stereo unspecified)"
  EC50: "> 100 µM"
- COMPOUND: "CCOC(=O)C(CCC(N)=O)(CCC(=O)OC)C(=O)OCC"
  EC50: "> 200 µM"
- COMPOUND: "CCCC(=O)Nc1ccc(O)c2c1C1CCCCCC21 (stereo unspecified)"
  EC50: "> 200 µM"
- COMPOUND: "N#Cc1nc(COCCOCc2ccc(F)cc2)oc1N"
  EC50: "> 200 µM"
- COMPOUND: "S=C1NC2(CCCCC2)C2=C(CCCC2)S1"
  EC50: "> 141 µM"
- COMPOUND: "NC1=NC2(COC(c3ccccc3)(c3ccccc3)c3ccccc3)OC(COC(c3ccccc3)(c3ccccc3)c3ccccc3)C(O)C2O1 (stereo unspecified)"
  EC50: "> 200 µM"
- COMPOUND: "CCOC(=O)CC(NCc1ccc(N=Cc2nc3ccc(C(F)(F)F)cc3nc2-c2ccccc2)cc1)C(=O)OCC (stereo unspecified)"
  EC50: "> 200 µM"
- COMPOUND: "N#C/C(=C\\c1ccc(O)c(O)c1)C(=O)NCCc1ccc(O)c(O)c1"
  EC50: "> 200 µM"

Fetch value of EC50 on CEM cells HIV-1 protection, formazan growth assay for CC(=O)OCC1OC(N2C(c3ccccc3)=CC(c3ccccc3)C(C#N)=C2S)C(OC(C)=O)C(OC(C)=O)C1OC(C)=O (stereo unspecified) .
> 200 µM

Quote EC50 with test system CEM cells HIV-1 protection, formazan growth assay for CNC(=O)C(C)Oc1ccc(OCC2CCCCC2)cc1 (stereo unspecified)
> 170 µM

Report measured EC50 on CEM cells HIV-1 protection, formazan growth assay; entry: `c1ccc(C[P+](c2ccccc2)(c2ccccc2)c2ccc3ccccc3c2-c2c([P+](Cc3ccccc3)(c3ccccc3)c3ccccc3)ccc3ccccc23)cc1`
> 257 µM

Provide CEM cells HIV-1 protection, formazan growth assay EC50 reading for COC(=O)C1=C(C)N2CCOC2(C)C(C(=O)OC)C1c1ccc[nH]1 (stereo unspecified) .
> 200 µM

Please tell me the measured EC50 for `COc1cc(/C=C/C=C2\CC/C(=C\C=C\c3ccc(O)c(OC)c3)C2=O)ccc1O` ; system: CEM cells HIV-1 protection, formazan growth assay.
> 200 µM

Specify the recorded EC50 for `O=C(NCc1cccc(C(F)(F)F)c1)c1cc2sccc2nc1C(F)(F)F` , system: CEM cells HIV-1 protection, formazan growth assay.
> 200 µM

* * *

Test system: CEM cells HIV-1 protection, formazan growth assay
PROTOCOL NOTES: NCI AIDS Antiviral Assay
Experimental: The ability of compounds to protect human CEM cells from HIV-1 infection is measured as a screen for new compounds capable of inhibiting the HIV virus. Five concentrations of drug were tested on uninfected and infected cells and cell growth was measured using a soluble formazan assay. […] Compounds that provided at least 50% protection were retested. Compounds that provided at least 50% protection on retest were listed as moderately active. […]
Recorded EC50, one value per entry.

As a guide, the following entries are already answered.
- MOLECULE: "COC(=O)c1cc(C#N)[nH]c1-c1ccc(C)s1"
  EC50: "> 200 µM"
- MOLECULE: "CC1=NN(c2ccccc2)C(=O)C1N=Nc1ccc(Br)cc1C (stereo not given)"
  EC50: "> 17.4 µM"
- MOLECULE: "O=C(NO)c1cccc(OCc2ccc(Br)cc2)c1"
  EC50: "> 200 µM"
- MOLECULE: "c1ccc(OP2(Oc3ccccc3)=NP(Oc3ccccc3)(Oc3ccccc3)=NP(Oc3ccccc3)(Oc3ccccc3)=NP(Oc3ccccc3)(Oc3ccccc3)=N2)cc1"
  EC50: "> 100 µM"
- MOLECULE: "N#C/C(=C\\n1c(=S)[nH]c2ccc([N+](=O)[O-])cc21)C(=O)c1ccc2ccccc2c1"
  EC50: "> 200 µM"

Return reported EC50. Input molecule: `O=C1CCNC/C1=C\c1ccccc1`
> 6920 µM

Please report EC50 for the following molecule: CC(=O)OCC1OC(Nn2c(=O)[nH]c3ccccc3c2=O)C(OC(C)=O)C(OC(C)=O)C1OC(C)=O (stereo not given)
> 158 µM

Note EC50 for the molecule shown: COC(=O)C(C(=O)c1ccccc1)C(C(=O)C(=O)Nc1ccc(OC)cc1OC)C(=O)C(=O)c1ccc(C)cc1 (stereo not given)
> 457 µM

Determine its reported EC50: `O=c1n(CCCN2CCOCC2)nc2n1-c1ccc3ccccc3c1SC2`
> 200 µM

Please report the measured EC50 for OCC1OC(n2nc(-c3ccccc3)nc2-c2cnccn2)C(O)C1O (stereo not given)
> 200 µM

Please list EC50 recorded for the molecule `COC=C(c1cc(Br)c(OC)c(C(=O)OC)c1)c1cc(Br)c(OC)c(C(=O)OC)c1`
> 200 µM

Each recorded value in this set is attributed to PubChem BioAssay AID179.
